System: SK-MEL-2
assay-notes: NCI tumour cell line growth inhibition, 48 h
Active and inactive are the calls of the source. Rule as the data show it: active = GI50 up to about 1.1 µM and inactive = higher.
measured-metric: GI50

COC(=O)C1CC(C=O)=C(SC)N1 (stereo not given)    > 50 µM (inactive)
NC1=NN(c2ccccc2)C(=O)C1C(=O)C(=O)Nc1ccc(Cl)c(Cl)c1 (stereo not given)    > 100 µM (inactive)
Cc1cn2c(/C=N/NC(=N)N)c(-c3ccc([N+](=O)[O-])cc3)nc2s1    1.36 µM (inactive)
Cc1c2ccccc2c(=O)n2c(-c3ccccn3)cccc12    > 100 µM (inactive)
C=C1CCC2[C@@H](CCC3[C@]2(C)CCC[C@]3(C)C(=O)OC)[C@@H]1CC=O (stereo not given in full)    31.6 µM (inactive)

What GI50 value was documented for this compound, COC1=C(OC)C(=O)c2cc(C)c(=O)c(C)cc2C1=O ?
17.3 µM (inactive)

What GI50 value was documented for this compound, CC(C)COC(=O)OC(=O)c1ccc(N(C)Cc2cnc3nc(N)nc(N)c3n2)cc1 ?
> 100 µM (inactive)

What GI50 value was documented for this compound, Cn1c(=S)[nH]c2sc3c(c2c1=O)CCSC3 ?
> 100 µM (inactive)

What GI50 value was documented for this compound, O=C(C(=O)n1ccc2ccccc21)n1ccc2ccccc21 ?
> 100 µM (inactive)

What GI50 value was documented for this compound, CCCCCCN(CCCCCC)C1=CC(=O)C(=O)c2ccccc21 ?
18.7 µM (inactive)

What GI50 value was documented for this compound, C=C1CC2CC[C@@]34C[C@@H]5O[C@@H]6C(O[C@H]7CC[C@H](CC(=O)OC8[C@@H](C)C9OC%10C[C@]%11(C[C@@H]%12O[C@@]%13(C[C@@H](C)[C@@H]%12O%11)C[C@H](C)[C@@H]%11OC%12CC(C(O)CO)OC%12C[C@@H]%11O%13)OC%10CC9O[C@H]8C[C@H]8O[C@@H](CC[C@@H]1O2)C[C@@H](C)C8=C)O[C@@H]7[C@@H]6O3)C5O4 (stereo not given in full) ?
0.00125 µM (active)

What GI50 value was documented for this compound, O=C1C[C@@H]2[C@@H](CCC23CCCC3)N1 ?
> 100 µM (inactive)

What GI50 value was documented for this compound, COc1ccc2c(c1)OCC1=C2Oc2ccccc2C1 ?
26.5 µM (inactive)

What GI50 value was documented for this compound, CCOC(=O)[C@@]1(C)CC(O)C(=O)N1C (stereo not given in full) ?
> 100 µM (inactive)

What GI50 value was documented for this compound, Cc1cnc2c(c1)C(=O)N(c1ccc(Oc3ccccc3)cc1)S2(=O)=O ?
> 100 µM (inactive)

----------
Tested on: HOP-62
assay-notes: NCI tumour cell line growth inhibition, 48 h
The source made the active and inactive calls. Rule as the data show it: active = GI50 up to about 1.1 µM and inactive = higher.
# Lookup of reported GI50 keyed by entry

Check out these entries, answers already filled in.
COC(=O)C1=C(C)NC(CF)=C(C(=O)OC)C1c1cccc2c(=O)c3ccccc3oc12 (stereo not drawn)    11.7 µM (inactive)
Nc1nc(OCC2CCCCC2)c2nc[nH]c2n1    13.4 µM (inactive)
CCOC(=O)/C(C(=O)c1ccccc1)=C1/NCCN1C    > 100 µM (inactive)
[N-]=[N+]=NC1=C(c2ccccn2)C(=O)c2cccc3cccc1c23    19.7 µM (inactive)
CNC(=O)N(CCC#N)CCCN(C(=O)NC)c1ccccc1    > 100 µM (inactive)
S=C1SCN(Cc2ccco2)CN1c1ccc(Br)cc1    23.8 µM (inactive)
Cc1ccc(NC(=O)CC/C(CC(=O)C(C)(C)C)=N/NC(=O)C(N)=O)cc1C    > 100 µM (inactive)

API: the following record is the query input.
What GI50 value was documented for this compound, O=NN1C(c2ccccc2)CC(=NO)CC1c1ccccc1 (stereo not drawn) ?
> 100 µM (inactive)
